- target-system: HLA-A*6802 (Homo sapiens, UniProt P04439, A269V/D140Y/D185E/E176V/E277Q/E87N/F33Y/G231S/I121R/I166T/I218V/L180W/L300P/L318F/N151K/P208A/P217A/Q86R/R138H/R169H/S129P/T345S/V36M)
- assay-explanation: HLA class I binding assay, purified HLA, inhibition of 125I-labelled probe peptide
- reported-conditions: A2 supermotif cross-reactive binding data; read-out: A*6802 nM
Kindly state pIC50 for each of the entries shown.
Answers are plain numbers, as −log10 of the molar value.

> print(dat)
                            substance  endpoint.name  result.value
1  H-SLHLLSNDMCV-OH [Peptide 1418.66]          pIC50          5.67

Next up:
Input line: What does the record list as pIC50 for H-LLSNDMCARV-OH [Peptide 1418.53] ?
Output line: 5.77

* * *

- target-system: HLA-A*0201 (Homo sapiens, UniProt P04439, D140Y/D185E/D98H/E176V/E277Q/G131W/G231S/I119V/I121R/I166T/I218V/L300P/L318F/N151K/N90K/P208A/P217A/Q86G/Q94H/R138H/R169H/T345S)
- assay-explanation: HLA class I binding assay, purified HLA, inhibition of 125I-labelled probe peptide
- reported-conditions: A*[…], A2 supermotif cross-reactive binding data
endpoint-name: log10 IC50 (log10 of the value in nM)
Remember, log10 of IC50, in nM.

The examples below pair each entry with its known result.
molecule	endpoint-name	result-value
CC(C)C[C@H](NC(=O)[C@H](C)N)C(=O)N[C@@H](CO)C(=O)N[C@H](C(=O)NCC(=O)N[C@@H](CS)C(=O)N[C@H](C(=O)NCC(=O)N[C@H](C(=O)O)C(C)C)[C@@H](C)O)C(C)C [Peptide 1418.15]	log10 IC50	1.38
CC(C)C[C@H](NC(=O)[C@H](CCC(=O)O)NC(=O)[C@H](CCCCN)NC(=O)[C@H](C)NC(=O)[C@H](CC(C)C)NC(=O)[C@@H](N)C(C)C)C(=O)N[C@@H](CCCCN)C(=O)N[C@@H](Cc1ccccc1)C(=O)N[C@H](C(=O)N[C@H](C(=O)O)C(C)C)C(C)C [Peptide 63.0034]	log10 IC50	1.49
CC(C)C[C@H](NC(=O)[C@H](CO)NC(=O)[C@H](C)NC(=O)[C@H](C)NC(=O)[C@H](CCCNC(=N)N)NC(=O)[C@H](C)NC(=O)[C@H](CC(C)C)NC(=O)[C@@H](N)CC(C)C)C(=O)N[C@@H](CO)C(=O)N[C@H](C(=O)O)C(C)C [Peptide 63.0031]	log10 IC50	2.04
CC[C@H](C)[C@H](N)C(=O)N[C@@H](CC(C)C)C(=O)N[C@@H](CC(C)C)C(=O)N[C@@H](CO)C(=O)N[C@H](C(=O)NCC(=O)N[C@@H](CS)C(=O)N[C@H](C(=O)NCC(=O)N[C@@H](C)C(=O)N[C@H](C(=O)O)C(C)C)[C@@H](C)O)C(C)C [Peptide 1418.57]	log10 IC50	1.56
CSCC[C@H](NC(=O)[C@H](CC(=O)O)NC(=O)[C@H](CC(N)=O)NC(=O)[C@H](CO)NC(=O)[C@H](CC(C)C)NC(=O)[C@H](CC(C)C)NC(=O)[C@@H](N)Cc1c[nH]cn1)C(=O)N[C@@H](CS)C(=O)N[C@@H](C)C(=O)N[C@@H](CCCNC(=N)N)C(=O)N[C@H](C(=O)O)C(C)C [Peptide 1418.67]	log10 IC50	1.41

Look at each molecule and report its log10 IC50.
1. CC(C)C[C@H](NC(=O)[C@H](CO)NC(=O)[C@H](CC(C)C)NC(=O)[C@H](CO)NC(=O)[C@H](C)NC(=O)[C@H](C)NC(=O)[C@H](CCCNC(=N)N)NC(=O)[C@H](C)NC(=O)[C@H](CC(C)C)NC(=O)[C@@H](N)CC(C)C)C(=O)O [Peptide 20.0203]
2. CC[C@H](C)[C@H](NC(=O)[C@H](CO)NC(=O)[C@@H](NC(=O)CN)C(C)C)C(=O)N[C@@H](Cc1c[nH]c2ccccc12)C(=O)N[C@@H](CC(N)=O)C(=O)N1CCC[C@H]1C(=O)N[C@H](C(=O)N[C@@H](CC(C)C)C(=O)N[C@H](C(=O)O)C(C)C)[C@@H](C)CC [Peptide 63.0041]

Output line:
2.70
2.40

* * *

- Test system: .221A2.1 peptide-loaded target cells and cells expressing endogenous antigen
- assay-explanation: Primary in vitro CTL induction with peptide-pulsed DC, CTL lytic activity by 51Cr release
- Format: cell-based, human
- reported-conditions: immunogenicity, CTL recognition of the peptide, positive/tested
endpoint-name: A2 peptide

Your task in this section: give A2 peptide for each listed record.
1. CSCC[C@H](NC(=O)[C@@H](N)CC(C)C)C(=O)N[C@@H](Cc1ccc(O)cc1)C(=O)N[C@@H](CO)C(=O)N[C@@H](CC(C)C)C(=O)N[C@H](C(=O)N[C@@H](Cc1c[nH]cn1)C(=O)N[C@@H](CC(N)=O)C(=O)N[C@@H](CC(C)C)C(=O)O)C(C)C [Peptide 1126.14]
2. CC(C)C[C@H](NC(=O)[C@H](Cc1ccccc1)NC(=O)[C@H](Cc1ccccc1)NC(=O)CNC(=O)CNC(=O)[C@H](C)NC(=O)[C@H](CC(C)C)NC(=O)[C@@H](N)C(C)C)C(=O)N[C@H](C(=O)O)C(C)C [Peptide 1389.20]
3. CC(C)C[C@H](NC(=O)[C@H](CCCCN)NC(=O)[C@H](CCCCN)NC(=O)[C@@H]1CCCN1C(=O)[C@@H](NC(=O)[C@H](CC(C)C)NC(=O)[C@@H](N)Cc1ccccc1)[C@@H](C)O)C(=O)N[C@@H](CCC(N)=O)C(=O)N[C@@H](CS)C(=O)N[C@H](C(=O)O)C(C)C [Peptide 1098.02]
4. CC[C@H](C)[C@H](N)C(=O)N[C@H](C(=O)N[C@@H](CC(C)C)C(=O)N[C@@H](Cc1c[nH]c2ccccc12)C(=O)N[C@@H](CCC(N)=O)C(=O)N1CCC[C@H]1C(=O)N[C@H](C(=O)N1CCC[C@H]1C(=O)N[C@H](C(=O)O)C(C)C)[C@@H](C)CC)[C@@H](C)O [Peptide 1418.25]
5. CC(C)C[C@H](NC(=O)[C@H](Cc1c[nH]c2ccccc12)NC(=O)[C@H](Cc1ccccc1)NC(=O)[C@H](Cc1ccccc1)NC(=O)[C@@H](NC(=O)[C@@H](N)CC(C)C)[C@@H](C)O)C(=O)N[C@@H](CC(=O)O)C(=O)N[C@@H](CCCNC(=N)N)C(=O)N[C@@H](CO)C(=O)N[C@H](C(=O)O)C(C)C [Peptide 1418.23]
6. CC[C@H](C)[C@H](N)C(=O)N[C@@H](CCSC)C(=O)N[C@@H](Cc1ccc(O)cc1)C(=O)N[C@@H](CO)C(=O)N[C@@H](C)C(=O)N[C@@H](Cc1c[nH]cn1)C(=O)N[C@@H](CC(=O)O)C(=O)N[C@H](C(=O)N[C@H](C(=O)N[C@H](C(=O)O)C(C)C)[C@@H](C)O)[C@@H](C)O [Peptide 1097.05]
7. CC[C@H](C)[C@H](NC(=O)[C@@H]1CCCN1C(=O)[C@H](Cc1c[nH]cn1)NC(=O)[C@@H](NC(=O)[C@@H]1CCCN1C(=O)[C@@H](NC(=O)[C@H](CO)NC(=O)[C@@H]1CCCN1C(=O)[C@H](CC(C)C)NC(=O)CN)[C@@H](C)CC)C(C)C)C(=O)O [Peptide 1129.10]

Output line:
3/3
1/2
3/4
3/3
3/3
3/3
2/4

* * *

Provide the recorded pIC50 for the entries that follow.
- target-system: HLA-A*0202 (Homo sapiens, UniProt P04439, D140Y/D185E/D98H/E176V/E277Q/G131W/G231S/I119L/I121R/I166T/I218V/L180W/L300P/L318F/N151K/N90K/P208A/P217A/Q67R/Q86G/Q94H/R138H/R169H/T345S)
- assay-explanation: HLA class I binding assay, purified HLA, inhibition of 125I-labelled probe peptide
- reported-conditions: A2 supermotif cross-reactive binding data
One number for each entry, as −log10 of the molar value.

> print(dat)
                           substance  result.value
1  H-LLSNDMCARV-OH [Peptide 1418.53]          9.15

Input line: I am curious: what pIC50 value has been reported for H-SLHLLSNDMCV-OH [Peptide 1418.66] ?
Output line: 9.10

* * *

Would you kindly list pIC50 for each of these compounds?
- target-system: HLA-A*0201 (Homo sapiens, UniProt P04439, D140Y/D185E/D98H/E176V/E277Q/G131W/G231S/I119V/I121R/I166T/I218V/L300P/L318F/N151K/N90K/P208A/P217A/Q86G/Q94H/R138H/R169H/T345S)
- assay-explanation: HLA class I binding assay, purified HLA, inhibition of 125I-labelled probe peptide
- reported-conditions: Table XXII group headings ≦ 200 nM / > 200 nM; binding to HLA-A*0201; read-out: Binding affinity
pIC50: −log10 of the molar value.

Example entries begin here.
smi	pIC50
CC(C)C[C@H](NC(=O)[C@@H](N)Cc1ccccc1)C(=O)N[C@@H](CC(N)=O)C(=O)N[C@@H](CCC(=O)O)C(=O)N[C@@H](CO)C(=O)N[C@@H](Cc1ccc(O)cc1)C(=O)N[C@@H](CCCCN)C(=O)N[C@@H](Cc1c[nH]cn1)C(=O)N[C@@H](CCC(=O)O)C(=O)N[C@@H](CCC(N)=O)C(=O)N[C@H](C(=O)O)C(C)C	≥ 6.70
CC(C)C[C@H](NC(=O)[C@H](Cc1ccccc1)NC(=O)[C@H](Cc1ccccc1)NC(=O)CNC(=O)CNC(=O)[C@H](C)NC(=O)[C@H](CC(C)C)NC(=O)[C@@H](NC(=O)[C@H](CC(C)C)NC(=O)[C@H](C)N)C(C)C)C(=O)O	< 6.70
CC(C)C[C@H](NC(=O)[C@@H](N)CC(C)C)C(=O)N[C@@H](Cc1c[nH]cn1)C(=O)N[C@@H](CCC(=O)O)C(=O)N[C@H](C(=O)N[C@@H](CC(=O)O)C(=O)N[C@@H](CO)C(=O)N[C@@H](C)C(=O)N[C@H](C(=O)O)C(C)C)[C@@H](C)O	< 6.70
CC(C)C[C@H](NC(=O)[C@H](Cc1ccccc1)NC(=O)[C@H](Cc1ccccc1)NC(=O)CNC(=O)CNC(=O)[C@H](C)NC(=O)[C@H](CC(C)C)NC(=O)[C@@H](NC(=O)[C@@H](N)CC(C)C)C(C)C)C(=O)O	≥ 6.70
CC(C)C[C@H](NC(=O)[C@@H](N)CCCCN)C(=O)NCC(=O)N[C@@H](CO)C(=O)NCC(=O)N[C@@H](CC(N)=O)C(=O)N[C@@H](CC(=O)O)C(=O)N[C@@H](Cc1ccccc1)C(=O)N[C@@H](CCC(=O)O)C(=O)N[C@H](C(=O)O)C(C)C	< 6.70

Provide the reported pIC50 of each entry below, same order.
1. CC[C@H](C)[C@H](NC(=O)[C@H](Cc1ccccc1)NC(=O)[C@H](C)NC(=O)[C@H](CCCNC(=N)N)NC(=O)[C@H](CCC(=O)O)NC(=O)[C@H](CC(C)C)NC(=O)[C@H](Cc1ccccc1)NC(=O)[C@H](CCSC)NC(=O)[C@H](CC(C)C)NC(=O)[C@@H](N)CCC(N)=O)C(=O)O
2. CC(C)C[C@H](NC(=O)[C@H](CO)NC(=O)[C@H](CC(C)C)NC(=O)[C@H](CO)NC(=O)[C@H](C)NC(=O)[C@H](C)NC(=O)[C@H](CCCNC(=N)N)NC(=O)[C@H](C)NC(=O)[C@H](CC(C)C)NC(=O)[C@H](CC(C)C)NC(=O)[C@@H](N)CC(C)C)C(=O)O

Output line:
1. ≥ 6.70
2. ≥ 6.70

Input line: Please give the measured pIC50 for this compound: CC(C)C[C@H](NC(=O)CN)C(=O)N[C@@H](CC(C)C)C(=O)NCC(=O)N[C@@H](CO)C(=O)N[C@H](C(=O)N[C@@H](CCC(=O)O)C(=O)N[C@@H](Cc1c[nH]c2ccccc12)C(=O)N[C@@H](C)C(=O)O)[C@@H](C)O
Output line: < 6.70
